Target: human CD33 G247A (human, UniProt P20138 18-364)
Sequence (P20138 18-364 G247A limits assumed): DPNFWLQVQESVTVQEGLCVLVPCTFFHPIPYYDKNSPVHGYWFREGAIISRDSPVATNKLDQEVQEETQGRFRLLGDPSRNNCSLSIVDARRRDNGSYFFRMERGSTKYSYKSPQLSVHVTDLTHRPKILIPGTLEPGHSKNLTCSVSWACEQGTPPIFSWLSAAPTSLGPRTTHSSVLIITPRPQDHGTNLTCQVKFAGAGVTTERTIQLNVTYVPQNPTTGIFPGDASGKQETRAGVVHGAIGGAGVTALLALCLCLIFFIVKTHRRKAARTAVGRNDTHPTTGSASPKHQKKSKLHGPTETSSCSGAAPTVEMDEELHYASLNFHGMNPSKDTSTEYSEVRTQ
Assay: alanine scan, flow cytometry, HEK293-T;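 also: antibody binding to each alanine-substituted CD33 mutant expressed transiently in HEK293-T, read as fluorescence minus background, mean of duplicates, relative to wild-type CD33 set as 100%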
Give measured Mean % WT Binding for each item. Keep answers brief.
One number for each entry, in % WT binding.

Binder	Result
Refmab #4 (antibody, V domains shown, The alanine scan used IgG or Fab) VH: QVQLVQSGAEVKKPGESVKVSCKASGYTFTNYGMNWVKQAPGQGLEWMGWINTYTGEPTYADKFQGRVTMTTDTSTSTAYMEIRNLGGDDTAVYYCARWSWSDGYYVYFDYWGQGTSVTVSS VL: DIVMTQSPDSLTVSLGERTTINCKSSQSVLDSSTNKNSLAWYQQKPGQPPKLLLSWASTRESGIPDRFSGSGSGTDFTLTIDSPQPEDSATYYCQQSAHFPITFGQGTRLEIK	113
Refmab #1 (antibody, V domains shown, The alanine scan used IgG or Fab; also called hP67.6) VH: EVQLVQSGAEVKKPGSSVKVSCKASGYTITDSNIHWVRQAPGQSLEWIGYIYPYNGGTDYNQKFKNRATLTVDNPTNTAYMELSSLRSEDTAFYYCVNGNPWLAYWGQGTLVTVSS VL: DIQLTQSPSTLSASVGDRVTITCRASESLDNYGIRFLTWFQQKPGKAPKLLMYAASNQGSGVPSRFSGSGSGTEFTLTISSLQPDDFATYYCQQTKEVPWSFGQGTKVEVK	98.5

Shift focus to the following entry.
Lookup: In one line, give reported Mean % WT Binding of the entry Refmab #3 (antibody, V domains shown, The alanine scan used IgG or Fab) VH: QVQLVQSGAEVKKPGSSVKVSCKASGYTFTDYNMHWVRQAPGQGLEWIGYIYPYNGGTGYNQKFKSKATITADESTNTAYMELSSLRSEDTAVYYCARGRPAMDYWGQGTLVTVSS VL: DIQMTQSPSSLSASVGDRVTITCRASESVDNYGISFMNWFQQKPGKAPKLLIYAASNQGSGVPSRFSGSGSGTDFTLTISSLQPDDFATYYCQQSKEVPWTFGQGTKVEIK .
Found: 106
